Where these numbers come from: patent EP0171005A2

Test: Acute toxicity, LD50 in mice
Conditions: mouse, in vivo, oral, read-out: LD 50 (os)
assay-metric: LD50 (mg/kg)
Give the value in mg/kg but do not write mg/kg after it.

Query :: Param item = Cn1c(=O)c2c(ncn2CC2NCCS2)n(C)c1=O (stereo not shown) ; retrieve measured LD50.
Result :: 600
